PROTOCOL SUMMARY: Acute toxicity in ip dosed Kunming mouse administered as single dose
Format: organism-based
COND: in vivo
MEASUREMENT NAME: MTD

Reported MTD, molecule "O=C1C=CC2(C=C1)OCC(=O)N2c1nc(-c2cccc3ccccc23)nn1-c1ccccc1" : ____ > 40 mg/kg

====

SYSTEM: Tyrosine-protein kinase JAK2 (Homo sapiens)
Sequence (O60674 whole entry): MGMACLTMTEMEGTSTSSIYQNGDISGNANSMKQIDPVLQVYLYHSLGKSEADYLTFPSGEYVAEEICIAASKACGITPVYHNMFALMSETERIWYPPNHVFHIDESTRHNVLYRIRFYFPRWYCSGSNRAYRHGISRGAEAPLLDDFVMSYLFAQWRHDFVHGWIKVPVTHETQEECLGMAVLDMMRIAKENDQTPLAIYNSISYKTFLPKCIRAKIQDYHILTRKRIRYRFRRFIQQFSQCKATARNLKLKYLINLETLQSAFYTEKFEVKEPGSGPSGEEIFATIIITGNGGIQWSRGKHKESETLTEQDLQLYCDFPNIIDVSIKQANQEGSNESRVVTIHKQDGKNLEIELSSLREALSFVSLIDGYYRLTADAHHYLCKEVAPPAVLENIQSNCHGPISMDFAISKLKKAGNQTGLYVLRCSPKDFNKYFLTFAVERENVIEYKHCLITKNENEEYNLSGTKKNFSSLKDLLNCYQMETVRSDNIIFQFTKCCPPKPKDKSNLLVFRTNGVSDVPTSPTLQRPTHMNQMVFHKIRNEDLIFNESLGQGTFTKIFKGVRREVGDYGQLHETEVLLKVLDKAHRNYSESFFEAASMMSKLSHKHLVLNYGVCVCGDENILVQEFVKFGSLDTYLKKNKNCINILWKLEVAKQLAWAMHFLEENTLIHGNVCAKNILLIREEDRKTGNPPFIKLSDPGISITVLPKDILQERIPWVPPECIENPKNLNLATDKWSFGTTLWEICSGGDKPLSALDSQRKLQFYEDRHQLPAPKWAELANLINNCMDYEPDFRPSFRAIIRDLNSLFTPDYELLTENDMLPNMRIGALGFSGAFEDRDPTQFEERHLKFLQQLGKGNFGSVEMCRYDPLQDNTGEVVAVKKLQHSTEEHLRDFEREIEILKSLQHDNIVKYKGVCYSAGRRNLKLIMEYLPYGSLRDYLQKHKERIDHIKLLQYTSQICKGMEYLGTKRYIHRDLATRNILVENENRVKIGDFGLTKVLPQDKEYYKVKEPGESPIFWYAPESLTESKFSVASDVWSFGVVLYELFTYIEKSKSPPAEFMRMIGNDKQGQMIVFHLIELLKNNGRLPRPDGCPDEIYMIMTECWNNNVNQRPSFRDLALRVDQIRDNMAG
PROTOCOL SUMMARY: Inhibition of JAK2 (unknown origin)
MEASUREMENT NAME: pIC50
# pIC50 is unitless: minus log10 of the molar concentration; print number only

Reported pIC50, molecule "O=C1C=CC2(C=C1)OCC(=O)N2c1nc(-c2cccc3ccccc23)nn1-c1ccccc1" : ____ 4.23

====

SYSTEM: Mitogen-activated protein kinase 10 (Homo sapiens, UniProt P53779)
Sequence (P53779 whole entry): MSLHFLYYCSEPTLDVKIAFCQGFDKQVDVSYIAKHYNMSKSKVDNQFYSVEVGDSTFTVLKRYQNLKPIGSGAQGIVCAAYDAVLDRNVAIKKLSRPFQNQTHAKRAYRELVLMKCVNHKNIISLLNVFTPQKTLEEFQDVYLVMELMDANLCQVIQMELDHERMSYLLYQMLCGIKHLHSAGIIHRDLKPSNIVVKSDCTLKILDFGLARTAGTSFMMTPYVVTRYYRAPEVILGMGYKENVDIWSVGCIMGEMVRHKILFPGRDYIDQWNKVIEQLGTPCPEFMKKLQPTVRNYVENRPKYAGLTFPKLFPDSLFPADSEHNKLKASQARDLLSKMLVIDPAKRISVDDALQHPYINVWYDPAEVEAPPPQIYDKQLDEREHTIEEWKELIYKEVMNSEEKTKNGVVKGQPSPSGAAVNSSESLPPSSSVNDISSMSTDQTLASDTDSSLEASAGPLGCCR
PROTOCOL SUMMARY: Inhibition of MAPK10 (unknown origin)
MEASUREMENT NAME: IC50

Hello, I am looking for reported IC50 with Mitogen-activated protein kinase 10 (Homo sapiens, UniProt P53779) for "O=C1C=CC2(C=C1)OCC(=O)N2c1nc(-c2cccc3ccccc23)nn1-c1ccccc1" . Could you help? > 100 µM
